Target: BRD2 BD2 (Homo sapiens (Human), UniProt P25440)
Sequence (P25440 344-453): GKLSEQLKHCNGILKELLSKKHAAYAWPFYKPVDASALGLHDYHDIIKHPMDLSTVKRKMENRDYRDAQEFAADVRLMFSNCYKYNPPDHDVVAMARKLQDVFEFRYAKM
Experiment: FP protein saturation experiment with probe Cpd. No. 350
Format: binding
Conditions: probe 1.5 nM
Assay endpoint: Kd (nM)
Entry rule: numbers only, all in nM.

Prompt: Which Kd value is on record for COc1cc2c(cc1-c1c(C)noc1C)[nH]c1nc(C(=O)NC3CCN(CCCNC(=O)c4ccc(-c5c6ccc(=O)cc-6oc6cc(O)ccc56)c(C(=O)O)c4)CC3)nc(-c3ccnc4ccc(F)cc34)c12 [Cpd. No. 350] ?
Response: 2.2

----------
Target: BRD2 BD2 (Homo sapiens (Human), UniProt P25440)
Test: FP competitive binding assay (BRD-1F probe)
Conditions: BRD-1F probe 5 nM, protein 200 nM
Assay endpoint: pIC50
// field semantics: pIC50 = negative decimal log of concentration (mol/L)

Prompt: Which pIC50 value is on record for COc1cc2c(cc1-c1c(C)noc1C)[nH]c1ccncc12 [RX-7] ?
Response: 5.87

Prompt: Which pIC50 value is on record for "COc1cc2c(cc1-c1c(C)noc1C)[nH]c1ccnc(-c3cn[nH]c3)c12" ?
Response: 6.54

Prompt: Which pIC50 value is on record for "COc1cc2c(cc1-c1c(C)noc1C)[nH]c1ccnc(-c3ccccc3)c12" ?
Response: 6.59

Prompt: Which pIC50 value is on record for COc1cc2c(cc1-c1c(C)n[nH]c1C)[nH]c1ccnc(-c3c(C)n[nH]c3C)c12 [Cpd. No. 34] ?
Response: 5.50

Prompt: Which pIC50 value is on record for "COc1cc2c(cc1-c1c(C)noc1C)[nH]c1ccnc(-c3cccnc3)c12" ?
Response: 6.46

Prompt: Which pIC50 value is on record for "COc1cc2c(cc1-c1c(C)noc1C)[nH]c1ccnc(-c3c(C)n[nH]c3C)c12" ?
Response: 7.03

----------
Provide the recorded pKi for the entries that follow.
Molecular target: BRD2 BD2 (Homo sapiens (Human))
Experiment: FP competitive binding assay using Cpd. No. 350 as the probe
// field semantics: pKi = negative decimal log of concentration (mol/L)

Prompt: Which pKi value is on record for "COc1cc2c(cc1-c1c(C)noc1C)[nH]c1ccnc(-c3c(C)nn(C)c3C)c12" ?
Response: 7.65

Prompt: Which pKi value is on record for "CCc1n[nH]c(CC)c1-c1nccc2[nH]c3cc(-c4c(C)noc4C)c(OC)cc3c12" ?
Response: 7.93

Prompt: Which pKi value is on record for "COc1cc2c(cc1-c1c(C)noc1C)[nH]c1ccnc(-c3c(C4CC4)n[nH]c3C)c12" ?
Response: 7.04

Prompt: Which pKi value is on record for "COc1cc2c(cc1-c1c(C)noc1C)[nH]c1ccncc12" ?
Response: 7.46

Prompt: Which pKi value is on record for "COc1cc2c(cc1-c1c(C)noc1C)[nH]c1ccnc(-c3c(C)n[nH]c3C)c12" ?
Response: 7.81

Prompt: Which pKi value is on record for "COc1cc2c(cc1-c1c(C)nn(C)c1C)[nH]c1ccnc(-c3c(C)nn(C)c3C)c12" ?
Response: 6.04

----------
Test system: AML-2
Experiment: Cell growth inhibition in leukemia cell line
Assay type: cell-based
Assay endpoint: IC50 (nM)
Entry rule: numbers only, all in nM.

Prompt: Which IC50 value is on record for COc1cc2c(cc1-c1c(C)noc1C)[nH]c1ccnc(-c3c(C)nn(C)c3C)c12 [Cpd. No. 25] ?
Response: 163

Prompt: Which IC50 value is on record for "COc1cc2c(cc1-c1c(C)noc1C)[nH]c1ccnc(-c3cn[nH]c3)c12" ?
Response: 217

Prompt: Which IC50 value is on record for COc1cc2c(cc1-c1c(C)noc1C)[nH]c1ccnc(-c3c(C4CC4)n[nH]c3C)c12 [Cpd. No. 24] ?
Response: 173

Prompt: Which IC50 value is on record for COc1cc2c(cc1-c1c(C)noc1C)[nH]c1ccnc(-c3c(C)n[nH]c3C)c12 [Cpd. No. 22] ?
Response: 101

Prompt: Which IC50 value is on record for COc1cc2c(cc1-c1c(C)noc1C)[nH]c1ccncc12 [Cpd. No. 1] ?
Response: 148

Prompt: Which IC50 value is on record for CCc1n[nH]c(CC)c1-c1nccc2[nH]c3cc(-c4c(C)noc4C)c(OC)cc3c12 [Cpd. No. 23] ?
Response: 104

----------
Provide the recorded IC50 for the entries that follow.
System: leukemia MOLM-13 cell line
Assay: 4-day cell viability assay, CellTiter-Glo
Type: cell-based
Settings: Homo sapiens, MOLM-13, 96 h; 4 days; read-out: Cell Growth Inhibition (IC50 (nM)) MOLM-13 Cell Line (CellTiter-Glo assay)
Entry rule: numbers only, all in nM.

Prompt: Which IC50 value is on record for COc1cc2c(cc1-c1c(C)noc1C)[nH]c1nc(C)nc(-c3cc(C(=O)NC4CCN(C)CC4)[nH]c3C(C)C)c12 [Cpd. No. 211] ?
Response: 10.4

Prompt: Which IC50 value is on record for COc1cc2c(cc1-c1c(C)noc1C)[nH]c1nc(C)nc(-c3cc(C(=O)NC4CCN(C5COC5)CC4)[nH]c3C(C)C)c12 [Cpd. No. 213] ?
Response: 48

Prompt: Which IC50 value is on record for CCc1n[nH]c(CC)c1-c1nccc2[nH]c3cc(-c4c(C)noc4C)c(OC)cc3c12 [Cpd. No. 23] ?
Response: 104

Prompt: Which IC50 value is on record for COc1cc2c(cc1-c1c(C)noc1C)[nH]c1ccnc(-c3c(-c4ccccc4)n[nH]c3C)c12 [Cpd. No. 26] ?
Response: 431

Prompt: Which IC50 value is on record for COc1cc2c(cc1-c1c(C)noc1C)[nH]c1nc(C)nc(-c3cc(C(=O)NC4CCN(C5CCOCC5)CC4)[nH]c3C(C)C)c12 [Cpd. No. 212] ?
Response: 22

Prompt: Which IC50 value is on record for COc1cc2c(cc1-c1c(C)noc1C)[nH]c1ccnc(-c3c(C4CC4)n[nH]c3C)c12 [Cpd. No. 24] ?
Response: 280

Prompt: Which IC50 value is on record for COc1cc2c(cc1-c1c(C)noc1C)[nH]c1nc(C)nc(-c3ccc(C(=O)NC4CCN(C)CC4)c4ccccc34)c12 [Cpd. No. 196] ?
Response: 6.8

Prompt: Which IC50 value is on record for "COc1cc2c(cc1-c1c(C)noc1C)[nH]c1ccnc(-c3c(C)n[nH]c3C)c12" ?
Response: 311

Prompt: Which IC50 value is on record for COc1cc2c(cc1-c1c(C)noc1C)[nH]c1nc(C)nc(-c3ccc(C(=O)N4CCN(C)CC4)c4ccccc34)c12 [Cpd. No. 207] ?
Response: 5.3

Prompt: Which IC50 value is on record for COc1cc2c(cc1-c1c(C)noc1C)[nH]c1ccncc12 [Cpd. No. 1] ?
Response: 550

Prompt: Which IC50 value is on record for "COc1cc2c(cc1-c1c(C)noc1C)[nH]c1ccnc(-c3cn[nH]c3)c12" ?
Response: 1040

Prompt: Which IC50 value is on record for COc1cc2c(cc1-c1c(C)noc1C)[nH]c1nc(C)nc(-c3ccc(C(=O)NC4CCN(C5COC5)CC4)c4ccccc34)c12 [Cpd. No. 197] ?
Response: 17.3

Prompt: Which IC50 value is on record for COc1cc2c(cc1-c1c(C)noc1C)[nH]c1ccnc(-c3c(C)nn(C)c3C)c12 [Cpd. No. 25] ?
Response: 343

Prompt: Which IC50 value is on record for COc1cc2c(cc1-c1c(C)noc1C)[nH]c1nc(C)nc(-c3cccc(C(C)(C)O)c3)c12 [Cpd. No. 183] ?
Response: 20

----------
Target: BRD2 BD1 (Homo sapiens (Human))
Sequence (P25440 74-180): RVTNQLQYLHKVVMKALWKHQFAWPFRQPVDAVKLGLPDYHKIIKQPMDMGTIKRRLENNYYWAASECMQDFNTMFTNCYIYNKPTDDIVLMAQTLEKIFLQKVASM
Assay: FP competitive binding assay using Cpd. No. 350 as the probe
One threshold, 20 nM, splits the recorded Ki values: lower ones are Condition met, equal or higher ones are Condition not met.

Prompt: Decide: Ki of COc1cc2c(cc1-c1c(C)noc1C)[nH]c1ccnc(-c3c(C)nn(C)c3C)c12 [Cpd. No. 25] strictly below 20 nM?
Response: Condition met

Prompt: Decide: Ki of COc1cc2c(cc1-c1c(C)noc1C)[nH]c1ccnc(-c3c(C4CC4)n[nH]c3C)c12 [Cpd. No. 24] strictly below 20 nM?
Response: Condition not met

Prompt: Decide: Ki of COc1cc2c(cc1-c1c(C)noc1C)[nH]c1ccncc12 [Cpd. No. 1] strictly below 20 nM?
Response: Condition not met

Prompt: Decide: Ki of COc1cc2c(cc1-c1c(C)noc1C)[nH]c1ccnc(-c3c(C)n[nH]c3C)c12 [Cpd. No. 22] strictly below 20 nM?
Response: Condition not met

Prompt: Decide: Ki of COc1cc2c(cc1-c1c(C)nn(C)c1C)[nH]c1ccnc(-c3c(C)nn(C)c3C)c12 [Cpd. No. 33] strictly below 20 nM?
Response: Condition not met

Prompt: Decide: Ki of CCc1n[nH]c(CC)c1-c1nccc2[nH]c3cc(-c4c(C)noc4C)c(OC)cc3c12 [Cpd. No. 23] strictly below 20 nM?
Response: Condition met
